Hello, the source for this data is patent US8343475B2, in case you need it.

test system: CXCL1 (Gro-α) release by human PBMC; experiment: Chemokine induction in PBMC (capture ELISA); format: cell-based; settings: 20 μg/ml peptide, background (196) subtracted
Property: Chemokine induction Gro-α (pg/mL)

> print(dat)
                             substance                        system.tested  measured.number
1     1040 (FQVVKIKVR) [compound 1040]  CXCL1 (Gro-α) release by human PBMC                2
2  1003 (IVWKIKRWWVGR) [compound 1003]  CXCL1 (Gro-α) release by human PBMC               65
3     1029 (KQFRIRVRV) [compound 1029]  CXCL1 (Gro-α) release by human PBMC               49
